target_under_test: POU domain, class 3, transcription factor 2 (Mus musculus)
experimental_protocol: Antagonistic activity against BRN2/DNA interaction by electrophoretic mobility shift assay

smiles: O=C(COc1ccc(C(=O)Nc2cccc(F)c2)c2ccccc12)NCC(F)(F)F
target_under_test: POU domain, class 3, transcription factor 2 (Mus musculus)
measure_unit: µM
value_qualifier: =
IC50: 204
--
smiles: O=C(COc1ccc(C(=O)Nc2cccc(F)c2)c2ccccc12)NC1CC1
target_under_test: POU domain, class 3, transcription factor 2 (Mus musculus)
measure_unit: µM
value_qualifier: >
IC50: 10000
--
smiles: O=C(COc1ccc(C(=O)Nc2cccc(F)c2)c2ccccc12)Nc1ccc(O)cc1
target_under_test: POU domain, class 3, transcription factor 2 (Mus musculus)
measure_unit: µM
value_qualifier: =
IC50: 138
--
smiles: O=C(COc1ccc(C(=O)Nc2cccc(F)c2)c2ccccc12)Nc1cccc(O)c1
target_under_test: POU domain, class 3, transcription factor 2 (Mus musculus)
measure_unit: µM
value_qualifier: =
IC50: 148
